The reported numbers originate from patent US20240199552A1.

system: Franklinella occidentalis; test: Insecticidal activity against Franklinella occidentalis nymphs, sprayed bean leaves; type: in vivo; details: 100 mg/L
Short version: Mortality rate (%, 3 days after the administration) 100 mg/L at least 80% is MET, less is NOT MET.

{"compound": "C=CCN(C(=O)c1ccccc1)c1cccc(C(=O)Nc2c(Br)cc(C(F)(C(F)(F)F)C(F)(F)F)cc2C(F)(F)F)c1F", "measured_target": "Franklinella occidentalis", "classification": "MET"}
{"compound": "CN(C(=O)c1ccc(F)cc1)c1cccc(C(=O)Nc2c(Br)cc(C(F)(C(F)(F)F)C(F)(F)F)cc2C(F)(F)F)c1F [KC4, reference compound]", "measured_target": "Franklinella occidentalis", "classification": "NOT MET"}
{"compound": "CN(C(=O)c1ccccc1)c1cccc(C(=O)Nc2c(Br)cc(C(F)(C(F)(F)F)C(F)(F)F)cc2C(F)(F)F)c1F [KC3, broflanilide, reference compound]", "measured_target": "Franklinella occidentalis", "classification": "NOT MET"}

Reported Mortality rate (%, 3 days after the administration) 100 mg/L at or above 80%? C#CCN(C(=O)c1ccccc1)c1cccc(C(=O)Nc2c(Br)cc(C(F)(C(F)(F)F)C(F)(F)F)cc2C(F)(F)F)c1F
MET
